Tested on: LXRa:RXRa (NR concentration 270 nM, RXRa partner concentration 90 nM)
PROCEDURE DETAILS: PBM binding z-score (relative to random genomic background probes); higher = stronger binding; sequences stand for … in GC…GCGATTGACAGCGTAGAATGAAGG
Task for the reader: assign each of the following sequences its reported PBM binding z-score.
Answers are plain numbers.

Example entries begin here.
ACAGACAGGTGAGTGAAGGTAACTCCGCTGGACG
-0.067
TCATATAGGTAAACAGGTGTAAGTCCGTAAGTTA
0.785
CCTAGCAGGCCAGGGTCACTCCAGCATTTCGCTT
1.25
CAAACTAGGTCCAGAGGTCAAAGTCCGCTTCCCG
5.55
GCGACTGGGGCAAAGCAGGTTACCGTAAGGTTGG
0.23
CCTCGGACGACAACAGGAGGTCAGAGCTGCCAGA
1.65

Now, please, on to the next sequence.
Qu. What value of PBM binding z-score has been reported for the following sequence? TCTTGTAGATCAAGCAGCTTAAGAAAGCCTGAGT
Ans. -0.169

---

Test system: PXR:RXRa (NR concentration 270 nM, RXRa partner concentration 90 nM)
PROCEDURE DETAILS: PBM binding z-score (relative to random genomic background probes); higher = stronger binding; sequences stand for … in GC…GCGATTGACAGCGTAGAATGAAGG
PARAMETER MEASURED: PBM binding z-score
Numbers only.

Example entries and their recorded answers appear below.
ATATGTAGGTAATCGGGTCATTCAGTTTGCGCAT
2.84
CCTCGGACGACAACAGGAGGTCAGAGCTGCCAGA
1.67
TCTCGGAGGACACGAACGGTCAGAGCTCGACATC
-0.215
GCACATAGGTAATACAAGGTGAAAGTCCGATTGT
0.612
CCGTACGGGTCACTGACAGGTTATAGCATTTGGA
3.74

Respectfully, I request PBM binding z-score for each entry included below.
1. CCGACTGGGGCAAAGGATACCATACTCAGTACGA
2. GGAACGAGGGAAAAGTTGATAGCATCTGTCGACG
3. TCATATAGGTAAACTGGTGAAAGTCCGTAAGTTA
4. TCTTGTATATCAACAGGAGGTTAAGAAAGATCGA
5. ATACCAAGGTGATCGTGAGGTCGTTCATACTAAC
6. CGACAAAGTTCAACTAAGGTAACGTAAAGCACGC
7. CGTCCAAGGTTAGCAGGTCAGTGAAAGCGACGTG

Ans.
1. -0.407
2. -0.557
3. 0.463
4. 1.2
5. 3.23
6. 5.16
7. 1.18

Qu. Look up PBM binding z-score for this sequence: TCGAGTAGGTTACCAGTGGGGCATTCAGCTTTCT
Ans. -0.206

---

Field: PBM binding z-score. Provide a value for each of the sequences that follow.
Test system: RARa homodimer (NR concentration 270 nM)
PROCEDURE DETAILS: PBM binding z-score (relative to random genomic background probes); higher = stronger binding; sequences stand for … in GC…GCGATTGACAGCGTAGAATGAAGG
Give bare numbers.

Study these solved cases before continuing.
CTCGAAAGGTCGGTTGAGGTTAGTATACGGATAA
0.202
TATACAGCGTCAAAGGCCAGAGTACGAATGTCGA
-0.705
GCTTGTAGATCAAGGTTAAGAAGGACTAAGCTAA
-0.375
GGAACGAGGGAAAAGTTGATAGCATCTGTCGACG
-0.0387

Take each entry in turn and give its PBM binding z-score.
1. CGTCCAAGGTCAAAGATCAGTGAAGAGATGACGG
2. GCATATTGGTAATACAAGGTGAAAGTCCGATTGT

Ans.
[1.03, -0.0157]
